The values you see were collected from the supplement of paper PMC6522484.

As shown below, each of these compounds has a reported TCF/Wnt firefly luciferase reporter signal value.
System: SW480
Experiment: TCF/Wnt firefly luciferase reporter signal relative to plate median (fraction of plate median); higher = higher Wnt reporter signal
Conditions: 5 µM; treatment time 24 h; reporter: 7TFP
measurement-type: TCF/Wnt firefly luciferase reporter signal

compound: COc1ccc2cc(CCC(C)=O)ccc2c1
reported: 1.25
--
compound: OC(c1cc(C(F)(F)F)nc2c(C(F)(F)F)cccc12)C1CCCCN1 (stereo unspecified)
reported: 1.11
--
compound: COc1ccc2c(c1)OC/C(=C/c1ccc(O)c(O)c1)C2=O
reported: 1.09
--
compound: CN(C)CCC=C1c2ccccc2CCc2ccccc21
reported: 0.963
--
compound: O=c1[nH]cnc2c1ncn2[C@@H]1O[C@H](CO)[C@@H](O)[C@H]1O [Inosin]
reported: 0.999
--
compound: CCCCNc1cc(C(=O)O)cc(S(N)(=O)=O)c1Oc1ccccc1
reported: 1.06

====

Test system: DLD1
Experiment: cell viability (CellTiter-Glo) relative to plate median (fraction of plate median); higher = more viable cells
Conditions: 5 µM; treatment time 24 h; reporter: 7TFP
Quick reference: cell viability of the listed items.
measurement-type: cell viability

compound: CC(=O)O[C@@H]1CC2C(C)(CC[C@H](O)C2(C)C)C2CC[C@]3(C)C(=CC(=O)O[C@H]3c3ccoc3)C21C (stereo partly drawn) [3beta-HYDROXYDEOXODIHYDRODEOXYGEDUNIN]
measurement-type: cell viability
reported: 1
//
compound: CC(C)(CO)C(O)C(=O)NCCCO (stereo not given)
measurement-type: cell viability
reported: 1.05
//
compound: CCOc1ccc(Cc2nccc3cc(OCC)c(OCC)cc23)cc1OCC
measurement-type: cell viability
reported: 0.876
//
compound: CC(=O)Nc1ccc(O)cc1
measurement-type: cell viability
reported: 0.935
//
compound: O=C(O)/C=C(\CC(=O)O)C(=O)O
measurement-type: cell viability
reported: 1.05

====

List of TCF/Wnt firefly luciferase reporter signal values.
System: SW480
Test: TCF/Wnt firefly luciferase reporter signal relative to plate median (fraction of plate median); higher = higher Wnt reporter signal
Settings: 5 µM; treatment time 24 h; reporter: 7TFP
measurement-type: TCF/Wnt firefly luciferase reporter signal

compound: O=c1c(O)c(-c2ccccc2)oc2cccc(O)c12
target-desc: SW480
reported: 0.969
//
compound: CC(Oc1ccccc1)C(=O)N[C@@H]1C(=O)N2[C@@H]1SC(C)(C)[C@@H]2C(=O)O (stereo partly specified)
target-desc: SW480
reported: 1.06
//
compound: CC(C)=CCc1c2c(c3occ(-c4ccc(O)c(O)c4)c(=O)c3c1O)C=CC(C)(C)O2
target-desc: SW480
reported: 1.02
//
compound: Cc1nc2ccccc2c(=O)[nH]1
target-desc: SW480
reported: 1.1
//
compound: CC1=C(CCC(=O)O)c2cc3nc(cc4[nH]c(cc5[nH]c(cc1n2)c(C)c5C(C)O)c(C)c4C(C)O)C(C)=C3CCC(=O)O (stereo unspecified)
target-desc: SW480
reported: 1.02
//
compound: Cc1scc2c1N(C(=O)CN1CCN(C)CC1)c1ccccc1NC2=O
target-desc: SW480
reported: 0.954
//
compound: CCCCCC1C(=O)CCC1CC(=O)O (stereo unspecified)
target-desc: SW480
reported: 1.04
//
compound: C=C1C2CCC3(C)C(c4ccoc4)OC(=O)CC13OC1CC(=O)C(C)(C)C(CC(=O)OC)C12C (stereo unspecified)
target-desc: SW480
reported: 1.09
//
compound: CC(C(=O)O)c1ccc(C(=O)c2cccs2)cc1 (stereo unspecified)
target-desc: SW480
reported: 0.999
//
compound: CC12CCC(CC1=O)C2(C)C (stereo unspecified)
target-desc: SW480
reported: 0.969
//
compound: O=C(O)CCC(=O)Nc1ccc(S(=O)(=O)Nc2nccs2)cc1
target-desc: SW480
reported: 1.03
//
compound: Cn1c(=O)[nH]c2ncn(C)c2c1=O
target-desc: SW480
reported: 1.02
//
compound: CCCCOc1cc(CC2CNC(=O)N2)ccc1OC (stereo unspecified)
target-desc: SW480
reported: 1.04
//
compound: C=C[C@@]1(C)CC(=O)[C@@]2(O)[C@](C)(O1)[C@@H](O)[C@@H](O)C1C(C)(C)CC[C@H](O)[C@@]12C (stereo partly specified)
target-desc: SW480
reported: 0.976
//
compound: CO[C@H]1C[C@@H]2CC[C@@H](C)[C@@](O)(O2)C(=O)C(=O)N2CCCC[C@H]2C(=O)O[C@H]([C@H](C)C[C@@H]2CC[C@@H](O)[C@H](OC)C2)CC(=O)[C@H](C)/C=C(\C)[C@@H](O)[C@@H](OC)C(=O)[C@H](C)C[C@H](C)/C=C/C=C/C=C/1C
target-desc: SW480
reported: 1.2
//
compound: O=C(Nc1ccccc1)Nc1ccccc1
target-desc: SW480
reported: 1.01
//
compound: Cc1cc(C(C)(C)C)c(O)c(C(C)(C)C)c1
target-desc: SW480
reported: 0.969
//
compound: C[C@H]1CC[C@@H](C(C)(C)O)CC2=C1CC[C@@H]2C
target-desc: SW480
reported: 0.86
//
compound: CC1=NN(c2ccccc2)C(=O)C1
target-desc: SW480
reported: 1.01
//
compound: CO[C@H]1C[C@H](O[C@@H]2/C(C)=C/C[C@@H]3C[C@@H](C[C@]4(CC[C@H](C)[C@@H](C5CCCCC5)O4)O3)OC(=O)[C@@H]3C=C(C)/C(=N/O)[C@H]4OC/C(=C\C=C\[C@@H]2C)[C@]43O)O[C@@H](C)[C@@H]1O
target-desc: SW480
reported: 1.08
//
compound: CN(C)[C@@H]1C(O)=C(C(N)=O)C(=O)[C@@]2(O)C(O)=C3C(=O)c4c(O)ccc(Cl)c4[C@@](C)(O)[C@H]3C[C@@H]12
target-desc: SW480
reported: 0.99
//
compound: CC(=O)OCC(=O)[C@H]1CC[C@H]2[C@@H]3CCC4=CC(=O)CC[C@]4(C)[C@H]3CC[C@]12C
target-desc: SW480
reported: 0.93
//
compound: CC(C)(C)NCC(O)c1cc(O)cc(O)c1 (stereo unspecified)
target-desc: SW480
reported: 1.03
//
compound: Cc1cc(O)c2c3c(ccc2c1)C(=O)c1c(O)cccc1C3=O
target-desc: SW480
reported: 0.974
//
compound: NNC(=O)c1ccncc1
target-desc: SW480
reported: 1.03
//
compound: COc1c2ccoc2cc2oc(C)cc(=O)c12
target-desc: SW480
reported: 0.986
//
compound: CC(=O)O[C@]1(C(C)=O)CC[C@H]2[C@@H]3C=C(Cl)C4=CC(=O)CC[C@]4(C)[C@H]3CC[C@@]21C
target-desc: SW480
reported: 1.06
//
compound: COc1cc2ccc(=O)oc2cc1O
target-desc: SW480
reported: 0.892
//
compound: CC(C)/C(O)=C1/C(=O)O[C@@H](c2ccoc2)[C@]2(C)C(O)[C@@H](O)[C@@]34OC5(C)OC67CC(C)(C(O)[C@]6(O)[C@@H](O)[C@]3(O5)C12)[C@H](CC(=O)O)[C@]74C (stereo partly specified)
target-desc: SW480
reported: 1.02
//
compound: C=C(CC)C(=O)c1ccc(OCC(=O)O)c(Cl)c1Cl
target-desc: SW480
reported: 1.09
//
compound: CO[C@H]1C[C@H](O[C@H]2[C@H](C)[C@@H](O[C@@H]3O[C@H](C)C[C@H](N(C)C)[C@H]3OC(C)=O)[C@@H](C)C[C@@]3(CO3)C(=O)[C@H](C)[C@@H](OC(C)=O)[C@@H](C)[C@@H](C)OC(=O)[C@@H]2C)O[C@@H](C)[C@@H]1OC(C)=O
target-desc: SW480
reported: 0.945
//
compound: CO/N=C(\C(=O)N[C@@H]1C(=O)N2C(C(=O)OCOC(=O)C(C)(C)C)=C(/C=C\c3scnc3C)CS[C@H]12)c1csc(N)n1
target-desc: SW480
reported: 0.854
//
compound: CC1=CC2C(CC1=O)C(C)=CCC2C(C)C (stereo unspecified)
target-desc: SW480
reported: 0.945
//
compound: O=c1c(O)c(-c2ccc(O)c(O)c2)oc2cc(O)cc(O)c12
target-desc: SW480
reported: 0.983
//
compound: CC(C)c1ncc(Cc2ccccc2)[nH]c1=O
target-desc: SW480
reported: 0.922
//
compound: CC1(C)NC(=O)N(c2ccc([N+](=O)[O-])c(C(F)(F)F)c2)C1=O
target-desc: SW480
reported: 0.961
